ASSAY_COMMENT: Pharmacokinetics in ICR mice after intravenous and intragastric administration
Type: in vivo
CONDITION_SUMMARY: male, ICR, mouse, plasma, po, 5 mg/kg, PO 5 mg/kg, ICR mice, individual animal; read-out: Cmax
Procedure: Experimental Example 3 Determination of the Pharmacokinetics of the Mdm2 Inhibitors of the Present Invention in Mice […] The collected plasma was stored at −80° C. before analysis. The plasma sample was analyzed by LC-MS/MS, and the sample was pretreated by protein precipitation method. […] The lowest quantification limit was 1 ng/mL. […]
Mark Y for Cmax under 1000 ng/mL, N if at or over.

>>> cat("COc1ncc(-c2nc3c(n2C(C)C)[C@H](c2ccc(Cl)cc2)N(c2cc(Cl)cn(C)c2=O)C3=O)c(OC)n1 [HDM201, reference compound]")
"Y"
>>> cat("COc1ccc(-c2nc3c(n2C(C)C)[C@@]2(C(=O)Nc4cc(Cl)ccc42)N(c2cc(Cl)ccc2C)C3=O)c(OC)c1 [Example S-9]")
"N"
>>> cat("COc1cc(OC)c(-c2nc3c(n2C(C)C)[C@@]2(C(=O)Nc4cc(Cl)ccc42)N(c2cc(Cl)ccc2C)C3=O)cn1 [Example S-11]")
"N"
>>> cat("COc1ncc(-c2nc3c(n2C(C)C)[C@@]2(C(=O)Nc4cc(Cl)ccc42)N(c2cc(Cl)ccc2C)C3=O)c(OC)n1 [Example S-2]")
"Y"
>>> cat("COc1cc(N(C)C)ccc1-c1nc2c(n1C(C)C)[C@@]1(C(=O)Nc3cc(Cl)ccc31)N(c1cc(Cl)ccc1C)C2=O [Example S-23]")
"N"

---

ASSAY_COMMENT: Pharmacokinetics in ICR mice after intravenous and intragastric administration
Type: in vivo
CONDITION_SUMMARY: male, ICR, mouse, plasma, po, 5 mg/kg, PO 5 mg/kg, ICR mice, Mean; read-out: MRT(0-∞)
QUANTITY: MRT inf (h)

>>> reported_measurement("COc1ncc(-c2nc3c(n2C(C)C)[C@@]2(C(=O)Nc4cc(Cl)ccc42)N(c2cccc(Cl)c2)C3=O)c(OC)n1")
2.76
>>> reported_measurement("COc1ncc(-c2nc3c(n2C(C)C)[C@H](c2ccc(Cl)cc2)N(c2cc(Cl)cn(C)c2=O)C3=O)c(OC)n1 [HDM201, reference compound]")
1.72
>>> reported_measurement("COc1ccc(-c2nc3c(n2C(C)C)[C@@]2(C(=O)Nc4cc(Cl)ccc42)N(c2cc(Cl)ccc2C)C3=O)c(OC)c1")
2.82

---

ASSAY_COMMENT: Pharmacokinetics in ICR mice after intravenous and intragastric administration
Assay type: in vivo
CONDITION_SUMMARY: ICR mice, PO 5 mg/kg vs IV 2 mg/kg, mean
Listed next: entries and their corresponding F*.
QUANTITY: F*

>>> reported_measurement("CCOc1ncc(-c2nc3c(n2C(C)C)[C@@]2(C(=O)Nc4cc(Cl)ccc42)N(c2cc(Cl)cnc2C)C3=O)c(OC)n1")
"47.70%"
>>> reported_measurement("COc1cc(C(F)(F)F)ncc1-c1nc2c(n1C(C)C)[C@@]1(C(=O)Nc3cc(Cl)ccc31)N(c1cc(Cl)ccc1C)C2=O")
"58.12%"
>>> reported_measurement("COc1cc(OC(C)C)ncc1-c1nc2c(n1C(C)C)[C@@]1(C(=O)Nc3cc(Cl)ccc31)N(c1cc(Cl)cnc1C)C2=O")
"53.35%"

---

ASSAY_COMMENT: Pharmacokinetics in ICR mice after intravenous and intragastric administration
Assay type: in vivo
CONDITION_SUMMARY: male, ICR, mouse, plasma, po, 5 mg/kg, ICR mice, PO 5 mg/kg, mean of 3 animals; read-out: t1/2 (converted)
Protocol: Experimental Example 3 Determination of the Pharmacokinetics of the Mdm2 Inhibitors of the Present Invention in Mice […] The collected plasma was stored at −80° C. before analysis. The plasma sample was analyzed by LC-MS/MS, and the sample was pretreated by protein precipitation method. […] The lowest quantification limit was 1 ng/mL. […]
QUANTITY: half-life (h)

>>> reported_measurement("CCOc1cc(OC)c(-c2nc3c(n2C(C)C)[C@@]2(C(=O)Nc4cc(Cl)ccc42)N(c2cc(Cl)cnc2C)C3=O)cn1")
2.11
>>> reported_measurement("CCOc1ncc(-c2nc3c(n2C(C)C)[C@@]2(C(=O)Nc4cc(Cl)ccc42)N(c2cc(Cl)cnc2C)C3=O)c(OC)n1")
1.45
>>> reported_measurement("COc1nc(N(C)C)ncc1-c1nc2c(n1C(C)C)[C@@]1(C(=O)Nc3cc(Cl)ccc31)N(c1cc(Cl)cnc1C)C2=O")
1.49
>>> reported_measurement("COc1cc(OC)c(-c2nc3c(n2C(C)C)[C@@]2(C(=O)Nc4cc(Cl)ccc42)N(c2cccc(Cl)c2)C3=O)cn1")
1.12
>>> reported_measurement("CCOc1cc(OC)c(-c2nc3c(n2C(C)C)[C@@]2(C(=O)Nc4cc(Cl)ccc42)N(c2cc(Cl)ccc2F)C3=O)cn1")
2.24
>>> reported_measurement("COc1nc(OCCF)ncc1-c1nc2c(n1C(C)C)[C@@]1(C(=O)Nc3cc(Cl)ccc31)N(c1cc(Cl)ccc1C)C2=O")
2.04

---

# UniProt Q00987: pIC50 values follow
pIC50: −log10 of the molar value.
QUANTITY: pIC50

>>> reported_measurement("COc1nc(C2CC2)ncc1-c1nc2c(n1C(C)C)[C@]1(C(=O)Nc3cc(Cl)ccc31)N(c1cc(Cl)cnc1C)C2=O [Example R-159]")
6.33
>>> reported_measurement("CCc1ccccc1-c1nc2c(n1C(C)C)[C@@]1(C(=O)Nc3cc(Cl)ccc31)N(c1cc(Cl)ccc1C)C2=O [Example S-7]")
7.14
>>> reported_measurement("COc1cc(C(F)(F)F)ccc1-c1nc2c(n1C(C)C)[C@]1(C(=O)Nc3cc(Cl)ccc31)N(c1cccc(Cl)c1)C2=O [Example R-129]")
6.83
>>> reported_measurement("COc1ncc(-c2nc3c(n2C(C)C)[C@]2(C(=O)Nc4cc(Cl)ccc42)N(c2ccc(C)c(Cl)c2)C3=O)c(OC)n1 [Example R-20]")
6.59
>>> reported_measurement("COc1ncc(-c2nc3c(n2C(C)C)[C@@]2(C(=O)Nc4cc(Cl)ccc42)N(c2cc(Cl)cn(C)c2=O)C3=O)c(OC)n1 [Example S-16]")
8.47
>>> reported_measurement("COc1cc(OC(C)C)ncc1-c1nc2c(n1C(C)C)[C@@]1(C(=O)Nc3cc(Cl)ccc31)N(c1cc(Cl)cnc1C)C2=O [Example S-137]")
8.78
>>> reported_measurement("COc1cc(OC)c(-c2nc3c(n2C(C)C)[C@@]2(C(=O)Nc4cc(Cl)ccc42)N(c2cc(Cl)ccc2F)C3=O)cn1 [Example S-133]")
8.85
>>> reported_measurement("COc1ncncc1-c1nc2c(n1C(C)C)[C@@]1(C(=O)Nc3cc(Cl)ccc31)N(c1cc(Cl)ccc1C)C2=O [Example S-27]")
8.46
>>> reported_measurement("COc1nc(OCCF)ncc1-c1nc2c(n1C(C)C)[C@]1(C(=O)Nc3cc(Cl)ccc31)N(c1cc(Cl)cnc1C)C2=O [Example R-170]")
6.63
>>> reported_measurement("CCn1c(-c2cnc(OC)nc2OC)nc2c1[C@]1(C(=O)Nc3cc(Cl)ccc31)N(c1cc(Cl)ccc1C)C2=O [Example R-26]")
6.63
>>> reported_measurement("COc1ncc(-c2nc3c(n2C(C)C)[C@@]2(C(=O)Nc4cc(Cl)ccc42)N(c2ccc(OC(F)(F)F)c(Cl)c2)C3=O)c(OC)n1 [Example S-161]")
8.09
>>> reported_measurement("COc1cc(OC)c(-c2nc3c(n2C(C)C)[C@]2(C(=O)Nc4cc(Cl)ccc42)N(c2cc(Cl)ccc2C)C3=O)cn1 [Example R-11]")
6.59
>>> reported_measurement("CCOc1cc(OC)c(-c2nc3c(n2C(C)C)[C@]2(C(=O)Nc4cc(Cl)ccc42)N(c2cc(Cl)ccc2F)C3=O)cn1 [Example R-98]")
5.99

---

EXPERIMENTAL_SYSTEM: MDM2 (Homo sapiens)
Sequence (Q00987 whole entry): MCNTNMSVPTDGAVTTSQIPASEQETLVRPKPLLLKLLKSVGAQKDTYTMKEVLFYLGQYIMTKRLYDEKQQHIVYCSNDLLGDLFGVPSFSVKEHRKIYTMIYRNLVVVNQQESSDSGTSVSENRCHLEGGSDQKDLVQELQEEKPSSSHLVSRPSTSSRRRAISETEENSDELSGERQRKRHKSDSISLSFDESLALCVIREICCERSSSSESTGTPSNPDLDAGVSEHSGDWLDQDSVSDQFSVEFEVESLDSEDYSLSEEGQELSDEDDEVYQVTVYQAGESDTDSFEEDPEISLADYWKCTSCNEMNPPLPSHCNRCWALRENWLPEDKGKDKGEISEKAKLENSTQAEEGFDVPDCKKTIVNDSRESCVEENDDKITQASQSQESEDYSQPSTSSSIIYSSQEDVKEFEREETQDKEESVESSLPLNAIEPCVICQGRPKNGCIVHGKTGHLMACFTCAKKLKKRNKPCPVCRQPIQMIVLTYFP
Listed next: entries and their corresponding log10 of IC50.
QUANTITY: log10 of IC50 (log10 of the value in nM)

>>> reported_measurement("CCN(C)c1ccc(-c2nc3c(n2C(C)C)[C@@]2(C(=O)Nc4cc(Cl)ccc42)N(c2cc(Cl)ccc2C)C3=O)c(OC)c1 [Example S-99]")
0.41
>>> reported_measurement("COc1ccccc1-c1nc2c(n1C(C)C)[C@@]1(C(=O)Nc3cc(Cl)ccc31)N(c1cc(Cl)ccc1C)C2=O [Example S-5]")
0.51
>>> reported_measurement("COc1cc(C)ccc1-c1nc2c(n1C(C)C)[C@@]1(C(=O)Nc3cc(Cl)ccc31)N(c1cc(Cl)ccc1C)C2=O [Example S-24]")
0.64
>>> reported_measurement("CCOc1cc(OC)c(-c2nc3c(n2C(C)C)[C@@]2(C(=O)Nc4cc(Cl)ccc42)N(c2cc(Cl)cnc2C)C3=O)cn1 [Example S-96]")
0.02
>>> reported_measurement("COc1nc(OCC(F)(F)F)ncc1-c1nc2c(n1C(C)C)[C@]1(C(=O)Nc3cc(Cl)ccc31)N(c1cc(Cl)ccc1C)C2=O [Example R-141]")
2.88
>>> reported_measurement("CCOc1ccc(-c2nc3c(n2C(C)C)[C@]2(C(=O)Nc4cc(Cl)ccc42)N(c2cccc(Cl)c2)C3=O)c(OC)c1 [Example R-100]")
2.80
>>> reported_measurement("COc1ccc(C(=O)N(C)C)cc1-c1nc2c(n1C(C)C)[C@]1(C(=O)Nc3cc(Cl)ccc31)N(c1cc(Cl)ccc1C)C2=O [Example R-22]")
2.80
>>> reported_measurement("CCc1cc(-c2nc3c(n2C(C)C)C2(C(=O)Nc4cc(Cl)ccc42)N(c2cc(Cl)ccc2C)C3=O)c(OC)cc1N(C)C (stereo not shown) [Example 125]")
1.32
>>> reported_measurement("COc1cc(CN(C)C)ccc1-c1nc2c(n1C(C)C)[C@@]1(C(=O)Nc3cc(Cl)ccc31)N(c1cc(Cl)ccc1C)C2=O [Example S-47]")
0.62
>>> reported_measurement("CNc1ccc(-c2nc3c(n2C(C)C)[C@@]2(C(=O)Nc4cc(Cl)ccc42)N(c2cc(Cl)ccc2C)C3=O)c(OC)c1 [Example S-25]")
0.40
>>> reported_measurement("CCOc1ncc(-c2nc3c(n2C(C)C)[C@@]2(C(=O)Nc4cc(Cl)ccc42)N(c2cc(Cl)cnc2C)C3=O)c(OC)n1 [Example S-134]")
0.41
>>> reported_measurement("COc1cc(C2CC2)ncc1-c1nc2c(n1C(C)C)[C@]1(C(=O)Nc3cc(Cl)ccc31)N(c1cc(Cl)cnc1C)C2=O [Example R-143]")
2.33
>>> reported_measurement("COc1ncc(-c2nc3c(n2C(C)C)[C@]2(C(=O)Nc4cc(Cl)ccc42)N(c2cccc(C)c2)C3=O)c(OC)n1 [Example R-55]")
2.64
